Biological target: T1, recombinant human PSMA (R&D, cat. no. 4234-ZN) (human, UniProt Q04609 44-750)
T1 construct: Bought protein; also called rhPSMA; Recombinant PMSA
T1 sequence (Q04609 44-750 limits assumed): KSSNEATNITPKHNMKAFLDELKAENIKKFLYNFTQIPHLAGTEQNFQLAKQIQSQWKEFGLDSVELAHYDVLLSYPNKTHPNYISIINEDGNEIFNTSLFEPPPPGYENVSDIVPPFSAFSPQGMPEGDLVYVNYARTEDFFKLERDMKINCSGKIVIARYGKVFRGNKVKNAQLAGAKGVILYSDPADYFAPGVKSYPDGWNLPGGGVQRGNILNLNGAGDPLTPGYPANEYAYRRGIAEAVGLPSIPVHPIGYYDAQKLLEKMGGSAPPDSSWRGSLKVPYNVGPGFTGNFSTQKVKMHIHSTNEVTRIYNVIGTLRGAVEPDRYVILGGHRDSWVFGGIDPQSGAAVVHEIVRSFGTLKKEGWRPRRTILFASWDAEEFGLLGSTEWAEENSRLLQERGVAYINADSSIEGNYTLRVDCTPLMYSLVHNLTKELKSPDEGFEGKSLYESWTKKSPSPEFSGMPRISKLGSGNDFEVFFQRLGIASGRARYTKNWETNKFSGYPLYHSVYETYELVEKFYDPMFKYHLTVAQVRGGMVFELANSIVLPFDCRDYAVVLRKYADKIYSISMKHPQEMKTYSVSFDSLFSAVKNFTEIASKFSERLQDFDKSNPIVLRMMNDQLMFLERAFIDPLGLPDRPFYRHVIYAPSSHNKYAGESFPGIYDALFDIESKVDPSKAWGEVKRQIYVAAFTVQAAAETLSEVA
Test: Octet RED384 BLI, PSMA on sensor, VH series from 0.375 ug/ml
test.readout: Kd (nM)
Give the value in nM but do not write nM after it.

Example entries begin here.
binder	readout.value
single VH domain antibody 1.18 (VHH, Human single VH domain antibody (Humabody)) VHH: EVQLLESGGGLVQPGGSLRLSCAASGFSFSSYALSWVRQAPGKGLEWVSSIGENNATTDYAASVKGRFTISRDNSKNTLYLQMNSLRVEDTAVYYCVKDGVHWGQGTLVTVSS	0.59
single VH domain antibody 1.14 (VHH, Human single VH domain antibody (Humabody)) VHH: EVQLLESGGGLVQPGGSLRLSCAASGFSFSSYALSWVRQAPGKGLEWVSSIGENNATTDYADVVKGRFTISRDNSKNTLYLQMNSLRVEDTAVYYCVKDGVHWGQGTLVTVSS	0.46
single VH domain antibody 1.8 (VHH, Human single VH domain antibody (Humabody)) VHH: EVQLLESGGGLVQPGGSLRLSCAASGFSFSSYAMSWVRQAPGKGLEWVSSIGENDGTTDYADSVKGRFTISRDNSKNTLYLQMNSLRVEDTAVYYCVKDGVHWGQGTLVTVSS	1.95
single VH domain antibody 1.11 (VHH, Human single VH domain antibody (Humabody)) VHH: EVQLLESGGGLVQPGGSLRLSCAASGFSFSSYALSWVRQAPGKGLEWVSSIGENNDTTDYADNVKGRFTISRDNSKNTLYLQMNSLRVEDTAVYYCVKDGVHWGQGTLVTVSS	0.8
single VH domain antibody 1.16 (VHH, Human single VH domain antibody (Humabody)) VHH: EVQLLESGGGLVQPGGSLRLSCAASGFSFSSYALSWVRQAPGKGLEWVSSIGENNHTTDYADTVKGRFTISRDNSKNTLYLQMNSLRVEDTAVYYCVKDGVHWGQGTLVTVSS	0.44

Here is the next item to consider.
INPUT: What measured Kd goes with single VH domain antibody 1.10 (VHH, Human single VH domain antibody (Humabody)) VHH: EVQLLESGGGLVQPGGSLRLSCAASGFSFSSYALSWVRQAPGKGLEWVSSIGENNATTDYADFVKGRFTISRDNSKNTLYLQMNSLRVEDTAVYYCVKDGVHWGQGTLVTVSS ?
OUTPUT: 0.67
